Kindly supply the reported hepatocyte CLint values for the records listed here.
# experimental-details: Intrinsic clearance in rat hepatocytes measured per 10^6 cells
# Assay type: ADME, cell-based, Hepatocyte
# protocol-conditions: read-out: CLH
Give the number; µL/min/1e6 cells is assumed, so skip it.

What does the data say about its hepatocyte CLint? Entry: Cc1cc(OC(F)(F)F)ccc1-c1c(Oc2ccc(/C=C/C(=O)O)cc2)c2ccc(C(F)F)cc2oc1=O
3

What does the data say about its hepatocyte CLint? Entry: Cc1cc(F)ccc1-c1c(Oc2ccc(/C=C/C(=O)O)cc2)c2cc(F)c(O)cc2oc1=O
84

What does the data say about its hepatocyte CLint? Entry: Cc1cc(F)ccc1-c1c(Cc2ccc(/C=C/C(=O)O)cc2)c2ccc(CO)cc2oc1=O
81

* * *

Kindly supply the reported Vd values for the records listed here.
# experimental-details: Volume of distribution at steady state in Alderley Park Han Wistar rat at 0.5 mg/kg, iv
# Format: ADME, organism-based
# Parameters: dose 0.5 mg/kg, route intravenous
# protocol-conditions: in vivo, read-out: Vdss

What does the data say about its Vd? Entry: Cc1cc(F)ccc1-c1c(Oc2ccc(/C=C/C(=O)O)cc2)c2ccc(O)cc2oc1=O
0.9 L/kg

What does the data say about its Vd? Entry: Cc1cc(OC(F)(F)F)ccc1-c1c(Oc2ccc(/C=C/C(=O)O)cc2)c2ccccc2oc1=O
1.7 L/kg

What does the data say about its Vd? Entry: O=C(O)/C=C/c1ccc(Cc2c(-c3ccccc3)c(=O)oc3cc(O)ccc23)cc1
1.4 L/kg

What does the data say about its Vd? Entry: CC/C(=C(\c1ccccc1)c1ccc(/C=C/C(=O)O)cc1)c1ccccc1
0.5 L/kg

What does the data say about its Vd? Entry: Cc1cc(OC(F)(F)F)ccc1-c1c(Oc2ccc(/C=C/C(=O)O)cc2)c2ccc(O)cc2oc1=O
0.7 L/kg

What does the data say about its Vd? Entry: Cc1cc(F)ccc1-c1c(Oc2ccc(/C=C/C(=O)O)cc2)c2ccccc2oc1=O
0.47 L/kg

* * *

# target: Estrogen receptor (Homo sapiens)
# Sequence (P03372 whole entry): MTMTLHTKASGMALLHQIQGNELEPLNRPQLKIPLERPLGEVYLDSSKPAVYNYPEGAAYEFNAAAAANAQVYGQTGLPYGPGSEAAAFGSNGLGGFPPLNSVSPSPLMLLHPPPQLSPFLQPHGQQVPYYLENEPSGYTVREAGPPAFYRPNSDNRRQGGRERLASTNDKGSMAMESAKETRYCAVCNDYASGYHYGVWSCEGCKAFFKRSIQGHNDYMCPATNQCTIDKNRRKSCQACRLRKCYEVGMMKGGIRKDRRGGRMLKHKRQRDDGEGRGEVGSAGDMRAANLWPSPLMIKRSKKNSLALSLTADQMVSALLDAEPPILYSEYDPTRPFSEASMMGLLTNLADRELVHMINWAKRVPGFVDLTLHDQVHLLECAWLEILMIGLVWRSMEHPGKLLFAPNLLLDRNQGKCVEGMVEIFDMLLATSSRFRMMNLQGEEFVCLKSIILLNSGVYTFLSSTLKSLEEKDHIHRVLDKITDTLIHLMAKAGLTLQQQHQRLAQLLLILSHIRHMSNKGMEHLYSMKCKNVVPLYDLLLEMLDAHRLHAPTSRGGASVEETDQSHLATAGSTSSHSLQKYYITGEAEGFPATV
# experimental-details: Suppression of ER alpha in human MCF7 cells after 24 hrs by immunostaining analysis
# Type: cell-based
property-name: log10(IC50) (log10 of the value in nM)
// do not treat as linear: log10 of IC50, unit nM

What does the data say about its log10(IC50)? Entry: COc1ccc2c(Cc3ccc(/C=C/C(=O)O)cc3)c(-c3ccc(OC(F)(F)F)cc3)c(=O)oc2c1
3.56

What does the data say about its log10(IC50)? Entry: Cc1cc2c(Cc3ccc(/C=C/C(=O)O)cc3)c(-c3ccc(OC(F)(F)F)cc3)c(=O)oc2cc1O
2.51

What does the data say about its log10(IC50)? Entry: Cc1cc(OC(F)(F)F)ccc1-c1c(Oc2ccc(/C=C/C(=O)O)cc2)c2ccc(O)cc2oc1=O
0.43

What does the data say about its log10(IC50)? Entry: O=C(O)/C=C/c1ccc(Cc2c(-c3ccc(F)cc3)c(=O)oc3cc(O)ccc23)cc1
3.11

What does the data say about its log10(IC50)? Entry: Cc1cc(F)ccc1-c1c(Cc2ccc(/C=C/C(=O)O)cc2)c2ccc(O)cc2oc1=O
2.07

What does the data say about its log10(IC50)? Entry: Cc1cc(Cl)ccc1-c1c(Cc2ccc(/C=C/C(=O)O)cc2)c2ccc(O)cc2oc1=O
1.48

What does the data say about its log10(IC50)? Entry: Cc1cc(F)ccc1-c1c(Cc2ccc(/C=C/C(=O)O)cc2)c2ccc(CO)cc2oc1=O
3.00

What does the data say about its log10(IC50)? Entry: O=C(O)/C=C/c1ccc(Cc2c(-c3ccc(OC(F)(F)F)cc3)c(=O)oc3cc(F)ccc23)cc1
4.03

What does the data say about its log10(IC50)? Entry: Cc1cc(F)ccc1-c1c(Cc2ccc(/C=C/C(=O)O)cc2)c2ccc(N)cc2oc1=O
3.14
